Molecular target: UniProt:P08253
Sequence (P08253 whole entry): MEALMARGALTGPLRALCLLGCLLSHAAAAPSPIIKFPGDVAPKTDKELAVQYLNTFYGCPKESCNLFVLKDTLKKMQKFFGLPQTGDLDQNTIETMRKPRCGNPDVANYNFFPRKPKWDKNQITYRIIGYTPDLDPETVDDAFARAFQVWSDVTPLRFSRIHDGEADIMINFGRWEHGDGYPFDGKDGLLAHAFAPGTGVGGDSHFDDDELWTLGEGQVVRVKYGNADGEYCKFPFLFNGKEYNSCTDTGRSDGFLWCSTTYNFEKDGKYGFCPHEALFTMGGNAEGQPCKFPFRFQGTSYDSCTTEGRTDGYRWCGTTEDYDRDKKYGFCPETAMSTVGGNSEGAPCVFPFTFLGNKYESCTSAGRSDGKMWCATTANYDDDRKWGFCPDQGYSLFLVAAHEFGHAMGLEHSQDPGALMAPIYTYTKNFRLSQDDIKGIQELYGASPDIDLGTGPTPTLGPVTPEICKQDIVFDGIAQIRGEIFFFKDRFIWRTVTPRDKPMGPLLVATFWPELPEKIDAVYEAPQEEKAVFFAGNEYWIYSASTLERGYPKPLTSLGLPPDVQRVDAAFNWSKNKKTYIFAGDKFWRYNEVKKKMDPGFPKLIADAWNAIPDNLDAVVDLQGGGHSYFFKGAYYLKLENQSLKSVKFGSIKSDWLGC
Assay: Binding affinity to MMP2
IC50 values by entry
recordedEndpoint: IC50

{"lineNotation": "CC(C)c1cc(C2=CCN(C(=O)[C@H]3NCC4(CC4)C[C@@H]3C(=O)NO)CC2)ccc1C#N", "testResult": "2500 nM"}
{"lineNotation": "CC(=O)N1CC2(CC2)C[C@H](C(=O)NO)[C@H]1C(=O)N1CC=C(c2ccccc2)CC1", "testResult": "50 nM"}
{"lineNotation": "O=C(NO)[C@H]1CC2(CC2)CN(C(=O)OCc2ccccc2)[C@@H]1C(=O)N1CC=C(c2ccccc2)CC1", "testResult": "37 nM"}
